Target: T1, FcεRI-IgG (UniProt P12319 26-205)
T1 construct: extracellular domain; Produced from CHO cells (Genentech); also called FcεRI-Fc; bivalent fusion protein of the extracellular domain of FcεRI and the Fc domain of IgG; not shown: Fc domain of IgG
T1 sequence (looked up): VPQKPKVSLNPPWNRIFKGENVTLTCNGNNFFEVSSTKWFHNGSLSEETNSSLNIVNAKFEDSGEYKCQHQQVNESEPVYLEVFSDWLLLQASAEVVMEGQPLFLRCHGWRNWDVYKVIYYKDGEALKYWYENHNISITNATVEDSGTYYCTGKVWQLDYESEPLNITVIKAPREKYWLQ
Experiment: competitive phage ELISA: g3 peptide-phage on immobilized FcεRI-IgG, soluble FcεRI-IgG titrated
Bridges are numbered along the chain shown (N, C = ends). Where no end group is shown, it is not given here.
endpoint.label: IC50 (nM)
One number for each entry, in nM.

binder	unit	recorded.number
NLPRCTEGPWGWVCMAAD (disulfide 5-14 (inferred); not fully specified, not shown: fused to M13 gene-3 protein (g3p) on phage) [g3b.1 peptide-phage]	nM	13

Hello, I would appreciate it if you could give IC50 for each entry below.
1. DLPACTEGPWGWVCMAAD (not fully specified; cysteine pairing not given here, not shown: fused to M13 gene-3 protein (g3p) on phage) [g3b.7 peptide-phage]
2. GRAQCTEGPWGWVCMAAD (not fully specified (bridges); cysteine pairing not given here, not shown: fused to M13 gene-3 protein (g3p) on phage) [g3b.6 peptide-phage]
3. VMPTCTEGPWGWVCMAAD (not fully specified (bridges); cysteine pairing not given here, not shown: fused to M13 gene-3 protein (g3p) on phage) [g3b.4 peptide-phage]

1: 9; 2: 16; 3: 7
